Target Entity: Androgen receptor (Homo sapiens, UniProt P10275)
Sequence (P10275 whole entry): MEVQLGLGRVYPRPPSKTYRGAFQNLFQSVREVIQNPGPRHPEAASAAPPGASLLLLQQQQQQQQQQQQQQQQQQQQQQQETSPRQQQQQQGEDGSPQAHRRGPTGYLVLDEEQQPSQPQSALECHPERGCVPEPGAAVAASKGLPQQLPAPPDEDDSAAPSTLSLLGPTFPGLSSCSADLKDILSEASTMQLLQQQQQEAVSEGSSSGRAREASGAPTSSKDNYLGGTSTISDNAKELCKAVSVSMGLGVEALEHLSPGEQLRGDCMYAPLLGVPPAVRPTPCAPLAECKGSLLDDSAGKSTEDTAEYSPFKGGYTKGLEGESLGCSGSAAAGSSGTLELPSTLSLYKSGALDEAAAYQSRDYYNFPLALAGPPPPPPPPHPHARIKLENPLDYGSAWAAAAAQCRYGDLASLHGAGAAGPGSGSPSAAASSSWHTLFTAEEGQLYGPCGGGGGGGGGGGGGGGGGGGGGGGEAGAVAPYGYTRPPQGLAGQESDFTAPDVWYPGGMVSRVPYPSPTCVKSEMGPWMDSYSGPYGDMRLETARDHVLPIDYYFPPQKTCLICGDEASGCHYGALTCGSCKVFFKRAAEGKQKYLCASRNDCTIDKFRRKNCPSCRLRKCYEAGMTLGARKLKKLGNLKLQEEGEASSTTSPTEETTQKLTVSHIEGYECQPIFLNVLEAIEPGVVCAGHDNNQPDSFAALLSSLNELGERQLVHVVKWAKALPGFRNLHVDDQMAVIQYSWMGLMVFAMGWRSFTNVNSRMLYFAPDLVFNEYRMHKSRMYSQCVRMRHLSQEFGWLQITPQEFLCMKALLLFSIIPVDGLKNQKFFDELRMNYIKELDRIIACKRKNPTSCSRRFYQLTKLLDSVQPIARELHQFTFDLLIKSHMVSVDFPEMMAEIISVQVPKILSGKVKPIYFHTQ
Condition Set: cv-1
Description: Agonistic activity against human androgen receptor (hAR) in co-transfected CV-1 cell

Compound String: CN1c2cc3c(cc2[C@H]2CCCC[C@H]21)c(C(F)(F)F)cc(=O)n3C
EC50: Not Active
//
Compound String: CC1(C)CCC[C@]2(C)c3cc4c(C(F)(F)F)cc(O)nc4cc3N[C@H]12
EC50: Not Active
//
Compound String: Cn1c(=O)cc(C(F)(F)F)c2cc3c(cc21)NCC3
EC50: Not Active
//
Compound String: CC1(C)CCC[C@@H]2c3cc4c(C(F)(F)F)cc(O)nc4cc3N[C@@H]21
EC50: Not Active
//
Compound String: CCn1c(=O)cc(C(F)(F)F)c2cc3c(cc21)N[C@@H]1CCCC[C@H]31
EC50: Not Active
//
Compound String: C[C@H]1N(C)c2cc3c(cc2C1(C)C)c(C(F)(F)F)cc(=O)n3C
EC50: Not Active

These entries and their values trace back to ChEMBL document CHEMBL1130772.
